Catalogue of revertant His+ colonies TA97 values
# Test system: Salmonella enterica serovar Typhimurium TA97
# Assay Info: Salmonella/microsome assay, TA97
# Experimental Setup: −S9, 1500 µM
# Protocol: Salmonella enterica serovar Typhimurium (S. typhimurium) strains TA97, TA98, TA100, TA104 and TA102 from the authors’ stock were used as described in the mutagenicity assay. To determine the cytotoxic effects, after 30 min pre-incubation, the assay mixtures were diluted in 0.9% NaCl (w/v) to obtain a suspension containing 2 × 10^2 cells/mL. […] The plates were then incubated at 37 °C for 24 h and the colonies counted. All the experiments were conducted in triplicate and were repeated at least twice. […]
// print number alone

Some compounds with known revertant His+ colonies TA97 results, for comparison:
Compound | Data Value
CC(=O)Nc1ccccc1C(F)(F)C(=O)NCC[C@@H]1C[C@H](CC(=O)OC(C)(C)C)OC(C)(C)O1 [Compound 13a] | 90
CC(=O)Nc1ccc(C)cc1C(F)(F)C(=O)NCC[C@@H]1C[C@H](CC(=O)OC(C)(C)C)OC(C)(C)O1 [Compound 13b] | 89

Field: next compound
Any idea what revertant His+ colonies TA97 came out for CC(=O)Nc1ccc(Cl)cc1C(F)(F)C(=O)NCC[C@@H]1C[C@H](CC(=O)OC(C)(C)C)OC(C)(C)O1 [Compound 13c] on Salmonella enterica serovar Typhimurium TA97?
62

---

# System: Salmonella enterica serovar Typhimurium TA102
# Experimental Setup: +S9, 150 µM
Value Type: revertant His+ colonies TA102
// print number alone

Any idea what revertant His+ colonies TA102 came out for CC(=O)Nc1ccc(C)cc1C(F)(F)C(=O)NCC[C@@H]1C[C@H](CC(=O)OC(C)(C)C)OC(C)(C)O1 [Compound 13b] on Salmonella enterica serovar Typhimurium TA102?
396

Any idea what revertant His+ colonies TA102 came out for CC(=O)Nc1ccc(Br)cc1C(F)(F)C(=O)NCC[C@@H]1C[C@H](CC(=O)OC(C)(C)C)OC(C)(C)O1 [Compound 13d] on Salmonella enterica serovar Typhimurium TA102?
162

Any idea what revertant His+ colonies TA102 came out for CC(=O)Nc1ccc(Cl)cc1C(F)(F)C(=O)NCC[C@@H]1C[C@H](CC(=O)OC(C)(C)C)OC(C)(C)O1 [Compound 13c] on Salmonella enterica serovar Typhimurium TA102?
401

Any idea what revertant His+ colonies TA102 came out for CC(=O)Nc1ccccc1C(F)(F)C(=O)NCC[C@@H]1C[C@H](CC(=O)OC(C)(C)C)OC(C)(C)O1 [Compound 13a] on Salmonella enterica serovar Typhimurium TA102?
411

---

# System: Salmonella enterica serovar Typhimurium TA97
# Assay Info: Salmonella/microsome assay, TA97
# Experimental Setup: +S9, 300 µM
Value Type: revertant His+ colonies TA97
// print number alone

Some compounds with known revertant His+ colonies TA97 results, for comparison:
Compound | Target Or System | revertant His+ colonies TA97
CC(=O)Nc1ccc(Cl)cc1C(F)(F)C(=O)NCC[C@@H]1C[C@H](CC(=O)OC(C)(C)C)OC(C)(C)O1 [Compound 13c] | Salmonella enterica serovar Typhimurium TA97 | 259
CC(=O)Nc1ccc(C)cc1C(F)(F)C(=O)NCC[C@@H]1C[C@H](CC(=O)OC(C)(C)C)OC(C)(C)O1 [Compound 13b] | Salmonella enterica serovar Typhimurium TA97 | 244
CC(=O)Nc1ccccc1C(F)(F)C(=O)NCC[C@@H]1C[C@H](CC(=O)OC(C)(C)C)OC(C)(C)O1 [Compound 13a] | Salmonella enterica serovar Typhimurium TA97 | 237

Can you share its revertant His+ colonies TA97? I mean this compound: CC(=O)Nc1ccc(Br)cc1C(F)(F)C(=O)NCC[C@@H]1C[C@H](CC(=O)OC(C)(C)C)OC(C)(C)O1 [Compound 13d]
288

Cited source for all entries: paper PMC10301432
